experimentSummary: Nonclinical pharmacokinetics in dogs
Set-up: species or system dog
assaySetup: male, dog, in vivo, iv, t1/2 terminal
propertyLabel: half-life (min)
Numbers only, in min.

Using the record for H-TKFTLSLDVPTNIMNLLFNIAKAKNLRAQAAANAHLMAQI-NH2 [SEQ ID NO: 1] , report its half-life.
59.6

====

experimentSummary: Nonclinical pharmacokinetics in dogs
Design: species or system dog
assaySetup: male, in vivo; dog IV infusion 3 hours, M, 8.33 ng/kg/min
Procedure: A sandwich immunoassay was developed using an affinity purified goat polyclonal antibody, specific to h-SCP that was pre-coated onto a microplate with integrated electrodes. h-SCP molecules present in the sample will bind to the capture polyclonal antibody coated on the plate. […] This conjugated antibody will bind to the h-SCP molecules captured on the microplate and the quantity of analyte was determined by electrochemiluminescence. […]
propertyLabel: AUC(0-inf) (ng·h/mL)
One number for each entry, in ng·h/mL.

Using the record for H-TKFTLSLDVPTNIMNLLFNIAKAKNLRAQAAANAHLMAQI-NH2 [SEQ ID NO: 1] , report its AUC(0-inf).
6.46
